EXPERIMENTAL_DETAILS: Population PK analysis (non-linear mixed-effect, two-compartment linear model) of berzosertib plasma concentrations, Studies 001 and 002
Assay type: in vivo
CONDITIONS: human, plasma, intravenous; base model; read-out: Clearance CL (converted)
ASSAY_ENDPOINT: clearance (mL/min)
Quick reminder: number only, in mL/min, skip the unit.

Request: clearance lookup needed for CNCc1ccc(-c2cc(-c3nc(-c4ccc(S(=O)(=O)C(C)C)cc4)cnc3N)on2)cc1 [berzosertib] , thanks.
Response: 933

----------
EXPERIMENTAL_DETAILS: Population PK analysis (non-linear mixed-effect, two-compartment linear model) of berzosertib plasma concentrations, Studies 001 and 002
Assay type: in vivo
CONDITIONS: human, plasma; full covariate model; typical patient; intravenous infusion; 240 patients, 18–480 mg/m^2; read-out: Clearance CL (converted)
Protocol: Longitudinal berzosertib plasma concentration and dosing data from the two phase I clinical trials, described above, were available for the analysis. The studies were performed in accordance with the Declaration of Helsinki; all participants provided written informed consent before blood samples were collected. […]
ASSAY_ENDPOINT: clearance (mL/min)
State the answer as a number, implicitly in mL/min.

Request: Which clearance reading was recorded for the compound CNCc1ccc(-c2cc(-c3nc(-c4ccc(S(=O)(=O)C(C)C)cc4)cnc3N)on2)cc1 ?
Response: 1080
